Source listed as PubChem BioAssay (NCATS).

max response: recorded values
system: KB-3-1; test: Cytotoxic Profiling of Annotated Libraries Using Quantitative High-Throughput Screening (AID 1296008); settings: Five cell lines viability, CellTiter-Glo ATP luminescence, 48-72 h; hits give low values; further: on the % scale 0 is the no-effect control and ±100 the full control effect; nearly all actives have a fitted effect of over 60% in size
Inconclusive results are not listed.
Response body: numeric value in %, unit text excluded.

Worked examples, 5 compounds total:
{"COMPOUND": "Cc1cc(C)c(NC(=O)C[C@H](CC(=O)O)c2cccc3ccccc23)c(C(=O)N2CCC3(CCCC3)CC2)c1", "QUANTITY": "max response", "VALUE REPORTED": -2.39}
{"COMPOUND": "CCC(Oc1ccccc1)C(=O)N[C@@H]1C(=O)N2[C@@H]1SC(C)(C)[C@@H]2C(=O)O (some centres not stated)", "QUANTITY": "max response", "VALUE REPORTED": 9.51}
{"COMPOUND": "CCc1ccc(S(=O)(=O)O)cc1", "QUANTITY": "max response", "VALUE REPORTED": 6.98}
{"COMPOUND": "C[C@@H]1O[C@@H]1P(=O)(O)O", "QUANTITY": "max response", "VALUE REPORTED": -3.35}
{"COMPOUND": "CC(=O)[C@@]1(O)CC[C@H]2[C@@H]3C=C(Cl)C4=CC(=O)[C@@H]5C[C@@H]5[C@]4(C)[C@H]3CC[C@@]21C", "QUANTITY": "max response", "VALUE REPORTED": 1.37}

// map `C=C1CC[C@H](O)CC1=C/C=C1\CCC[C@]2(C)[C@@H]([C@H](C)CC[C@@H](O)C(C)(C)O)CC[C@@H]12` to recorded max response (system: KB-3-1) 6.41

// map `NC[C@H]1O[C@H](O[C@H]2[C@H](O)[C@@H](O[C@H]3O[C@H](CO)[C@@H](O)[C@H](N)[C@H]3O)[C@H](N)C[C@@H]2N)[C@H](O)[C@@H](O)[C@@H]1O` to recorded max response (system: KB-3-1) 14.5

// map C=C(C)C1CC=C(C)CC1 (configuration not stated) to recorded max response (system: KB-3-1) 7.51

// map CC[C@@]1([C@@H]2O[C@@H]([C@H]3O[C@@](O)(CO)[C@H](C)C[C@@H]3C)C[C@@H]2C)CC[C@H]([C@]2(C)CC[C@]3(C[C@H](O)[C@@H](C)[C@@H]([C@@H](C)[C@@H](OC)[C@H](C)C(=O)O)O3)O2)O1 (stereo in doubt) to recorded max response (system: KB-3-1) -18.2

// map `CC1=C(/C=C/C(C)=C/C=C/C(C)=C/C=C/C=C(C)/C=C/C=C(C)/C=C/C2=C(C)C[C@@H](O)CC2(C)C)C(C)(C)C[C@H](O)C1` to recorded max response (system: KB-3-1) -5.35

// map CC1CC(O)CC(C)(C)C1 (configuration not stated) to recorded max response (system: KB-3-1) 4.01

// map CC(O)[C@@H]1NC(=O)[C@H](Cc2ccccc2)NC(=O)[C@H](C(C)O)NC(=O)[C@H](CCCCN)NC(=O)[C@H](Cc2c[nH]c3ccccc23)NC(=O)[C@H](Cc2ccccc2)NC(=O)[C@H](Cc2ccccc2)NC(=O)[C@H](CC(N)=O)NC(=O)[C@H](CCCCN)NC(=O)[C@@H](NC(=O)CNC(=O)[C@H](C)N)CSSC[C@@H](C(=O)O)NC(=O)[C@H](CO)NC1=O (some centres not stated) to recorded max response (system: KB-3-1) -3.89
